// data source = ChEMBL document CHEMBL2086253

Tested on: MCF7
Protocol notes: Cytotoxicity against human MCF7 cells after 72 hrs by crystal violet staining
Format: functional, cell-based
Condition label: MCF7, 72 h
pIC50: −log10 of the molar value.
Catalogue of pIC50 values
Quantity measured: pIC50

N#C/N=C(/NC1CCCCC1)N1CCC(=C2c3ccc(Cl)cc3CCc3cccnc32)CC1 ... 5.41
CCCCCN/C(=N/C#N)N1CCC(=C2c3ccc(Cl)cc3CCc3cccnc32)CC1 ... 5.46
CCCCN/C(=N/C#N)N1CCC(=C2c3ccc(Cl)cc3CCc3cccnc32)CC1 ... 5.41
COc1ccc(CCN/C(=N/C#N)N2CCC(=C3c4ccc(Cl)cc4CCc4cccnc43)CC2)cc1OC ... 5.15
N#C/N=C(/NCc1ccccc1)N1CCC(=C2c3ccc(Cl)cc3CCc3cccnc32)CC1 ... 5.54
O=c1[nH]cc(F)c(=O)[nH]1 ... 5.33
CCCCCCCCN/C(=N/C#N)N1CCC(=C2c3ccc(Cl)cc3CCc3cccnc32)CC1 ... 5.85
CC(N/C(=N/C#N)N1CCC(=C2c3ccc(Cl)cc3CCc3cccnc32)CC1)c1ccccc1 (stereo not given) ... 5.40
N#C/N=C(/NCCc1ccccc1)N1CCC(=C2c3ccc(Cl)cc3CCc3cccnc32)CC1 ... 5.64
N#C/N=C(/NCCc1ccc2c(c1)OCO2)N1CCC(=C2c3ccc(Cl)cc3CCc3cccnc32)CC1 ... 5.10

---

System: HT-29
Protocol notes: Cytotoxicity against human HT-29 cells after 72 hrs by crystal violet staining
Format: functional, cell-based
Condition label: HT-29, 72 h
pIC50: −log10 of the molar value.
Reported pIC50 values for a set of compounds
Quantity measured: pIC50

CCCCN/C(=N/C#N)N1CCC(=C2c3ccc(Cl)cc3CCc3cccnc32)CC1 ... 5.40
N#C/N=C(/NCCc1ccc2c(c1)OCO2)N1CCC(=C2c3ccc(Cl)cc3CCc3cccnc32)CC1 ... 5.19
N#C/N=C(/NCCc1ccccc1)N1CCC(=C2c3ccc(Cl)cc3CCc3cccnc32)CC1 ... 5.49
N#C/N=C(/NCc1ccccc1)N1CCC(=C2c3ccc(Cl)cc3CCc3cccnc32)CC1 ... 5.51
CCCCCN/C(=N/C#N)N1CCC(=C2c3ccc(Cl)cc3CCc3cccnc32)CC1 ... 5.36
COc1ccc(CCN/C(=N/C#N)N2CCC(=C3c4ccc(Cl)cc4CCc4cccnc43)CC2)cc1OC ... 5.24
CC(N/C(=N/C#N)N1CCC(=C2c3ccc(Cl)cc3CCc3cccnc32)CC1)c1ccccc1 (centres undefined) ... 5.43
CCCCCCCCN/C(=N/C#N)N1CCC(=C2c3ccc(Cl)cc3CCc3cccnc32)CC1 ... 5.70
N#C/N=C(/NC1CCCCC1)N1CCC(=C2c3ccc(Cl)cc3CCc3cccnc32)CC1 ... 5.40
